What Kd was measured for each of the following?
Target: T1, recombinant cynomolgus PILRA (SEQ ID NO:120) (cynomolgus monkey)
T1 construct: also called cyno PILRA
T1 sequence (chain, as listed by the source limits assumed): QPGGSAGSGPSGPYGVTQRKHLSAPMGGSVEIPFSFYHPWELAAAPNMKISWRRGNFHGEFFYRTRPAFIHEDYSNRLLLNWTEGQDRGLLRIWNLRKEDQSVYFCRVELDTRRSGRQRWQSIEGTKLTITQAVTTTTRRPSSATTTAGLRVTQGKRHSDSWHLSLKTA
Test: SPR, Carterra LSA, antibody amine-coupled, kinetic fit
Answers are plain numbers, in nM.

binder="X11 (antibody, human IgG4, V domains shown, conditioned media in the HEK293F assays) VH: QVQLVQSGAEVKKPGSSVKVSCKASGYNFLNYDVNWVRQAPGQGLEWMGGIIPIFGTANYAQKFQGRVTITADESTSTAYMELSSLRSEDTAVYYCATGVGAGWFDPWGQGTLVTVSS VL: DIVMTQSPDSLAVSLGERATINCKSSQSVYFSENNKNYLAWYQQKPGQPPKLLIYWASTRESGVPDRFSGSGSGTDFTLTISSLQAEDVAVYYCQQYYEEPYTFGQGTRLEIK" numeric_result=0.3

Okay, now this binder:
Query string: Record request: Kd value, item X10 (antibody, human IgG4, V domains shown) VH: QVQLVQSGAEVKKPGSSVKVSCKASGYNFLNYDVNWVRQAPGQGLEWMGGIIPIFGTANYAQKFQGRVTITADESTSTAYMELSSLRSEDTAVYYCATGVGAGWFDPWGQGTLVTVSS VL: DIVMTQSPDSLAVSLGERATINCKSSQSVFFDENNKNYLAWYQQKPGQPPKLLIYWASTRESGVPDRFSGSGSGTDFTLTISSLQAEDVAVYYCQQYYEEPYTFGQGTRLEIK
Result string: 0.3
